Tested on: NCI-H460
Assay remarks: Cytotoxicity against human NCI-H460 cells assessed as reduction in cell viability measured after 72 hrs by SRB assay
Format: functional, cell-based
Details: NCI-H460, 72 h
Parameter measured: IC50
Form field: result (number plus unit)

Input: Given the compound O=c1c2ccccc2[nH]c2c([N+](=O)[O-])ccc(NCCCN3CCN(CCCNc4c5ccccc5nc5cccc([N+](=O)[O-])c45)CC3)c12 , what is its reported IC50?
Output: 9 nM

Input: Given the compound CN(CCCNc1c2ccccc2nc2cccc([N+](=O)[O-])c12)CCCNc1ccc([N+](=O)[O-])c2[nH]c3ccc(O)cc3c(=O)c12 , what is its reported IC50?
Output: 14 nM

Input: Given the compound Cc1ccc([N+](=O)[O-])c2c(NCCCN3CCN(CCCNc4ccc(C)c5[nH]c6ccc(O)cc6c(=O)c45)CC3)c3ccccc3nc12 , what is its reported IC50?
Output: 40 nM

Input: Given the compound O=c1c2cc(O)ccc2[nH]c2c([N+](=O)[O-])ccc(NCCCN3CCN(CCCNc4c5ccccc5nc5cccc([N+](=O)[O-])c45)CC3)c12 , what is its reported IC50?
Output: 20 nM

Input: Given the compound Cc1cc(NCCCN(C)CCCNc2ccc3ncn4c5ccccc5c(=O)c2c34)c([N+](=O)[O-])c2cc3ccccc3nc12 , what is its reported IC50?
Output: 25 nM

Input: Given the compound Cc1ccc([N+](=O)[O-])c2c(NCCCN3CCN(CCCNc4ccc([N+](=O)[O-])c5[nH]c6ccccc6c(=O)c45)CC3)c3ccccc3nc12 , what is its reported IC50?
Output: 40 nM

Input: Given the compound Cc1ccc([N+](=O)[O-])c2c(NCCCN3CCN(CCCNc4ccc5ncn6c7ccc(O)cc7c(=O)c4c56)CC3)c3ccccc3nc12 , what is its reported IC50?
Output: 74 nM
